biological target: UniProt:Q01726; test: Displacement of [125I]-[Nle4, D-Phe7]alpha-MSH from human melanocortin 1 receptor expressed in HEK293 cells at 10 uM; format: cell-based
Sequence (Q01726 whole entry, looked up): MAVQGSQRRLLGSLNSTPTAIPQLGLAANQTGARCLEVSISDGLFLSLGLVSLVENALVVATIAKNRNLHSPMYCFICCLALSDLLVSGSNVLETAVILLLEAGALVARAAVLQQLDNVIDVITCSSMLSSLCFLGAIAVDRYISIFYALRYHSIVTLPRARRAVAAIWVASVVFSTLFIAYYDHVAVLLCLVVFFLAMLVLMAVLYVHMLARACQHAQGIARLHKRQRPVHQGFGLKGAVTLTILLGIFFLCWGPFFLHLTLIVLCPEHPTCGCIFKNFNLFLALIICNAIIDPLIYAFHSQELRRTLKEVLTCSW
Calls of active or inactive are those of the source. No cut-off for these calls is given here.
RECORDED ENDPOINT: Activity

>>> measured_value("N=C(N)NCCC[C@@H]1NC(=O)[C@@H](Cc2ccccc2)NC(=O)[C@H](Cc2cnc[nH]2)NC(=O)c2cc([N+](=O)[O-])ccc2SC[C@@H](C(N)=O)NC(=O)[C@@H](Cc2ccc3ccccc3c2)NC1=O")
"inactive"
>>> measured_value("N=C(N)NCCC[C@@H]1NC(=O)[C@@H](Cc2ccccc2)NC(=O)[C@H](Cc2cnc[nH]2)NC(=O)c2cc([N+](=O)[O-])ccc2SC[C@@H](C(N)=O)NC(=O)[C@@H](Cc2ccccc2)NC1=O")
"inactive"
>>> measured_value("NCCC[C@@H]1NC(=O)[C@@H](Cc2ccccc2)NC(=O)[C@H](Cc2cnc[nH]2)NC(=O)c2cc([N+](=O)[O-])ccc2SC[C@@H](C(N)=O)NC(=O)[C@H](Cc2c[nH]c3ccccc23)NC1=O")
"inactive"
